- test-target: TDO2 (SW48 cells, high TDO expressing cells) (Homo sapiens, UniProt P48775)
- Construct: SW48 cells (high TDO expressing cells); endogenous in cells
- Sequence (P48775 whole entry): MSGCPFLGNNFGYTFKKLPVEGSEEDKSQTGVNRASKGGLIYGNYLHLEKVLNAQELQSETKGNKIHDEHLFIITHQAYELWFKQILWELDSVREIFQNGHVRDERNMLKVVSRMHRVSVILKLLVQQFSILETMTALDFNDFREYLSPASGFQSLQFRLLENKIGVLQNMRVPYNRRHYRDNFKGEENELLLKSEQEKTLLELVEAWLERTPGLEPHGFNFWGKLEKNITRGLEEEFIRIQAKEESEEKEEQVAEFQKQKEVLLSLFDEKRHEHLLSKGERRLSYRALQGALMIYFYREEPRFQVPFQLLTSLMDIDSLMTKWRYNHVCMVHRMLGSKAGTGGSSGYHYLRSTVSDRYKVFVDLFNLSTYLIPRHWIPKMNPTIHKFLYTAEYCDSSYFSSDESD
- procedure-details: NFK GreenScreen cell assay, inhibition of TDO in SW48 cells
- protocol-conditions: read-out: TDO2 Cell Fluor EC50
endpoint-label: pEC50
Reminder that pEC50 is minus the log10 of a molar concentration.

Examples with their reported pEC50 follow.
CS(=O)(=O)N1CCC2(CC1)C[C@@H]([C@H]1c3ccccc3-c3cncn31)[C@@H]2O (single isomer, unassigned) [Example 6d]
6.27
CS(=O)(=O)N1CCC2(CC1)C[C@H]([C@H]1c3ccccc3-c3cncn31)[C@@H]2O (single isomer, unassigned) [Example 6f]
6.92

Hello, I am looking for reported pEC50 with TDO2 (SW48 cells, high TDO expressing cells) (Homo sapiens, UniProt P48775) for N#CCS(=O)(=O)N1CCC2(CC1)C[C@H]([C@@H]1c3ccccc3-c3cncn31)[C@@H]2O [Example 21c] . Could you help?
5.23

Provide value of pEC50 for this record tested with TDO2 (SW48 cells, high TDO expressing cells) (Homo sapiens, UniProt P48775): O=S(=O)(c1c[nH]cn1)N1CCC2(CCC(C3c4ccccc4-c4cncn43)C2O)CC1 (single isomer, unassigned) [compound 59]
5.70

Query pEC50 on TDO2 (SW48 cells, high TDO expressing cells) (Homo sapiens, UniProt P48775) for O=C(C1CC1)N1CCC2(CC1)CC(C1c3ccccc3-c3cncn31)C2O (centres unmarked) [compound 43]
6.07

* * *

- test-target: IDO1 (A172+IFNg cells, high IDO expressing cells) (Homo sapiens)
- Construct: A172+IFNg cells (high IDO expressing cells); endogenous in cells
- Sequence (P14902 whole entry): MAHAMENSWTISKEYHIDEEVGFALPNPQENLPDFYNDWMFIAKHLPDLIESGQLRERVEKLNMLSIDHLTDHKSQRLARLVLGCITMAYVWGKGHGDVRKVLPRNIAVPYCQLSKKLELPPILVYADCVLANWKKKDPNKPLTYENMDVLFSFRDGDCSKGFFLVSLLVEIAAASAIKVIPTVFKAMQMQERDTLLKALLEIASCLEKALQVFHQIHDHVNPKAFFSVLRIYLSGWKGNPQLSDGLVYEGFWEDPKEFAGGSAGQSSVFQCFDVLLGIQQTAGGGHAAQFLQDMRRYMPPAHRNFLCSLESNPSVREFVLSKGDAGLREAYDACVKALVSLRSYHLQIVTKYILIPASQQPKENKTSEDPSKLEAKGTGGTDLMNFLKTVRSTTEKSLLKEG
- procedure-details: NFK GreenScreen cell assay, inhibition of IDO in A172+IFNg cells
- protocol-conditions: read-out: IDO cell Fluor EC50
Listing: pEC50 of selected molecules
Units for pEC50: none; it is -log10 of a concentration expressed in mol/L.

Examples with answers:
CC(C)(C)OC(=O)N1CC2CCC(C1)C21C[C@H]([C@@H]2c3ccccc3-c3cncn32)[C@H]1O (stereo partly shown) [Example 22g]
7.39
NS(=O)(=O)N1CCC2(CC[C@H]([C@H]3c4ccccc4-c4cncn43)[C@H]2O)CC1 (single isomer, unassigned)
4.80
NS(=O)(=O)N1CCC2(CC1)C[C@H]([C@H]1c3ccccc3-c3cncn31)[C@@H]2O (single isomer, unassigned) [Example 11f]
7.23
CN1C(=O)Cc2cc(S(=O)(=O)N3CCC4(CC3)CC(C3c5ccccc5-c5cncn53)C4O)ccc21 (stereo not shown)
6.64
O=S(=O)(C1CCC1)N1CCC2(CC1)C[C@@H]([C@H]1c3ccccc3-c3cncn31)[C@H]2O
7.46
NS(=O)(=O)N1CC2(CC[C@H]([C@@H]3c4ccccc4-c4cncn43)[C@H]2O)C1 (single isomer, unassigned)
6.24

# next molecule below
Recorded pEC50 of CP(C)(=O)N1CCC2(CC1)C[C@@H]([C@H]1c3ccccc3-c3cncn31)[C@H]2O (single isomer, unassigned) [Example 15b] , please.
5.96

* * *

- test-target: IDO1 (A172+IFNg cells, high IDO expressing cells) (Homo sapiens)
- Construct: A172+IFNg cells (high IDO expressing cells); endogenous in cells
- procedure-details: NFK GreenScreen cell assay, inhibition of IDO in A172+IFNg cells
- protocol-conditions: read-out: IDO cell Fluor EC50
endpoint-label: EC50 (µM)
Kindly answer with a numeric value in µM, unit omitted.

Form field: reported EC50 of CC(C)(C)OC(=O)N1CC2CCC(C1)C21C[C@@H]([C@@H]2c3ccccc3-c3cncn32)[C@@H]1O (stereo partly drawn) [Example 22e]
8.5

Name the recorded EC50 for CC(C)(C)OC(=O)N[C@H]1CC[C@@]2(CC1)C[C@H]([C@@H]1c3ccccc3-c3cncn31)[C@H]2O (single isomer, unassigned) [Example 24a] .
4.4

Return reported EC50; argument: Cn1cc(CCC(=O)N2CCC3(CC2)C[C@@H]([C@H]2c4ccccc4-c4cncn42)[C@H]3O)cn1
0.51
